assay: yeast display, Sf9 membrane polyspecificity reagent, FACS + sequencing; frameworks hold sequencing errors
PROPERTY MEASURED: polyreactivity (PSR sort gate)

Please review the entries below; each comes with its answer.
Please report the measured polyreactivity (PSR sort gate) for QVQLVESGGGLVQAGGRLRLSSAASRIIFRDNDMGWYRQAPGKERELVASISDSGGSTYYADSVKGRFTISRDNAKNTVYLQKNSLKSEATAVYYCAAPYLSLYLYDYWGQGTQVTVSS
low polyreactivity

Dear colleague, please send me the reported polyreactivity (PSR sort gate) for QVQLQESGGGLVQAGGSLRQSYAASGYIFPSLAMGWYRQAPGKEREFVAAIGRGSTNNYADSLKGRFTISRDNEKNTAYQQMNSLKPEVTAVYYCAADASPLTRHLYWGQGTQVTVSS when you can.
low polyreactivity

Return polyreactivity (PSR sort gate) for the following sequence: QVQLVESGGGLVQAGGSLRLSCAASGRIFYGYAMGWYRQAPGKERELVASITVSRTSTYYADSVKGRFTISRDNAKNTVYLQMNSLKPEDTAVYYCAVGDGFEYDWGQGTQVTVSS
low polyreactivity

Determine its reported polyreactivity (PSR sort gate): QVQLVESGGGLVQAGGSLRLSCAASGNTFYGYAMGWYRQAPGKERVLVATIDSGGSTNYADSVKGRFTISRDNAKNTVYFQMNSLKPEDTAVYYCAADGVWYYNDMDYWGQGTQVTVSS
low polyreactivity

Please give measured polyreactivity (PSR sort gate) of the following entry: QVQLVESGGGLVQAGGSLRLSCAASGFTFSHNAMGWSRQAPGKERELVAGINGSGGSTYYADSVKGRFTISRDNAKNTFYLQMNSLKPEDTAVYYCSKDGSNRLALPAWDYNYWGQGTQVTVSS
low polyreactivity

Please supply the value of reported polyreactivity (PSR sort gate) for the item QVQLVESGGGLVQARGSLRLSCAASGRIFVINAMGWYRQAPGKERELVAAISQSGGSTYYADSVKGRFTISRDNAKNTVYLQMNSLKPEDTAVYYCNALSNVPYDYWGQGTLVTVSS
low polyreactivity

State, in one line, measured polyreactivity (PSR sort gate) of QVQLVESGGGLVQAGGSLRLSCAASGSIFPYNAMGWYRQAPGKERELVATINSRGGRTYYADSVKGRFTISRDNAKNTVYLQMNSLKPEDTAVYYCARYYSSALRYGYWGQGTQVTVSS
low polyreactivity

Determine from records and report polyreactivity (PSR sort gate) for QVQLVESGGGLVQAGGSRRLSCAATGRTFGRYSMGWDRQAPGKERELVAAITTIGGSTYYADSVKGRFTISRDNAKNTVYLQMNSLKTEDTAVYYCAAGWVTNSDGMDYWGQGTQVTVSS
low polyreactivity

Report polyreactivity (PSR sort gate) for QVQLVESGGGLVQAGGSLRLSCDASGFNFASNDMGWYRPAPGKERELVAAITKGGGRTYYADSVKGRFTISRDNAKNTVYLQMNSLKPEDTAVYYCAARQLIKYDYWGQGTQVTVSS
low polyreactivity

We now examine a further sequence.
Assign polyreactivity (PSR sort gate) to the following record: QVQLVESGGGLVQAGGSLRLSCAASGSTFKGYTMGWYRQAPGKEREFVATITFSDGSTYYADCVKGRFTISRDNAKNTVYLQMNSLKPAVTAVYYCNVDSPIGYDYWGQGTQVTVSS
low polyreactivity

* * *

assay: yeast display, Sf9 membrane polyspecificity reagent, FACS + sequencing; frameworks hold sequencing errors
PROPERTY MEASURED: polyreactivity (PSR sort gate)

Look up and state reported polyreactivity (PSR sort gate) for QVQLVESGGGLVQAGGSLRLSCAASGRIFWYYAMGWYRQAPGKERELVASIRWGGGNTYYADSVKGRFTISRDNAKNTVYLQMNSLKPEDTAVYYCAKSKVSPSGDFYYWGQGTQVTVSS
high polyreactivity

Read the entry QVQLVESGGGLVQAGGSLRLSCAASGFIFNHYAMGWYRQAPGKEREFVAAISWSGGSTYYADSVKGRFTISRDNAKNTVYLKMNSLKPEDTAVYYCAASYNGLWHGDYNYWGQGTQVTVSS and write its reported polyreactivity (PSR sort gate).
low polyreactivity

Identify measured polyreactivity (PSR sort gate) corresponding to QVQLVESGGGLVQAGGSLRLSCAASGLTFYVYAMGWYRQAPGKEREFVAAITRSGGSTHFADSVKGGFTISRDNAKYTVYLQMNSLKPEDTAVYYGAARAIRYYIRYYYWGQGTQVTVSS
high polyreactivity

For the sequence QVQLVESGGGLVQAGGSLRLSCAASGITLGAYAMGWYRQAPGKERELVARIRIGGSTYYADSVKGRFTISRDNAKNTVYLQMNSLKPEDTAVYYCNRDFWYGVATGREFYLYDYWGQGTQVTVSS , give its reported polyreactivity (PSR sort gate).
low polyreactivity

Alright, here's another sequence for you.
Answer with the recorded polyreactivity (PSR sort gate) of QVQLVESGGGLVQAGGSLRLSCAASGRTFGRYAMGWSRQAPGKERELVAAINRGGSTKYADSVKGRFTISRDNAKNTVYLQMNSLKPEDTAVYYCAKDRHPAVHYDYWGQGTQVTVSS only.
low polyreactivity

* * *

test: yeast display, Sf9 membrane polyspecificity reagent, FACS + sequencing; frameworks hold sequencing errors
PROPERTY MEASURED: polyreactivity (PSR sort gate)

Determine its reported polyreactivity (PSR sort gate): QVQLEDSGGGLVQAGGSLRLSCAASGRTFRSNVMGWYRQAPGKERELVAAISKRGGSTFSADSVKGRFTISRDNAKNTVYLQMNSLKPEDTEVYYCAKDTPVYDYGTVYPDDYWGQGTQVTVSS
high polyreactivity

// Input: QVQLVESGGGLVQAGGSLRLSCAASGSTFQYNAKGWYRQAPGKERELVAAISSGGSTYYADSVKGRFTISRDNAKNTVYLQMNSLKPEDTAVYYCNALSRRQNWAGEVYYWGQGTQVTVSS . Output its polyreactivity (PSR sort gate) only.
high polyreactivity

* * *

test: yeast display, Sf9 membrane polyspecificity reagent, FACS + sequencing; frameworks hold sequencing errors
PROPERTY MEASURED: polyreactivity (PSR sort gate)

Answered cases to consult:
For the sequence QVQLVESGGGLVQAGGSLRLSCAASGFTFWYYAMGWYRQAPGKERELVAAITSGGTTYYADSVKGRFTISRDNAKNTVYLQMNSLKPEDTAVYYCAALLSIYRSQYDYWGQGTQVTVSS , give its reported polyreactivity (PSR sort gate).
high polyreactivity

Tell us which polyreactivity (PSR sort gate) value is on record for QVQLVESGGGLVQAGGSLRLSCAASGFTFNRYAMGWYRQAPGKERELVAAITSGGRTYYADSVKGRFTISRDNAKNTVYLQMNSLKPEDTAVYYCATLYVRNVSGYDYWGQGTQVTVSS
high polyreactivity

State its polyreactivity (PSR sort gate): QVQLVESGGGLVQAGGSLRLSCAASGLTFAKYAMGWYRQEPGKEREFVAAITYSGGTTYYADSVKGRFTISRDNAKNTVYLQMNSLKPEDTAVYYCNTRSTLGYYWGQGTQVTVSS
high polyreactivity

Supply polyreactivity (PSR sort gate) value. Item: QVQLVESGGGLVQAGGSLRLSCAASGFIYKYAMGWYRPAPGKERELVAAISQNGGSTRYADSVKGRFTISRDNAKNTVYLQMNSLKPEDTAVYYCNTGVARGYKYWGQGTQVTVSS
high polyreactivity

Supply reported polyreactivity (PSR sort gate) belonging to this sequence: QVQLVESGGGLVQAGGSLRLSCAASGSIFAAYAMGWYRQAPGKERELVAAITSGGGTYYADSVKGRFTISRDNAKNTVYLQMNSLKPEDTAGYYCNAGNTYNRVIWPYYYWGQGTQVTVSS
high polyreactivity

Further cases:
Determine its reported polyreactivity (PSR sort gate): QVHLVESGGGLVQAGGSLRLSCAASASTYGSNSMGWYRQAPGKERELVAAITLPGASTYYADSVKGRFTISRDNAKNTVSLEMNSLKGEDTSVYSCAAQIHPRRDYSAFDYWGPGTQVTVSS
low polyreactivity

Report polyreactivity (PSR sort gate) for QVQLVESGGGLVQAGGSLRLSCAASGITFDENTMGWYRQATGKERELVASISNGGNTYYADSVKGRFTISRDNAKNTVYLQMNSLKPEDSAVYYCAARYGYYYSRYDHWGQGTQVTVSS
low polyreactivity

Identify measured polyreactivity (PSR sort gate) associated with QVLLVESGGGLVQAGGSLRLSCAASGYTFHVNAMGWYRQAPGKERELVAAINTSGDSTYYADSLKGRFTISRDNAKNTVYLQMNSLKPEDTAVYYCNAKGSVTRIGMEYDYWGQGTQVTVSW
low polyreactivity

Supply reported polyreactivity (PSR sort gate) belonging to this sequence: QVHLVDSGGGLVQAGGPLRLTCPASGSTYRYTIGWYRQAPGKQRELVAAITGSAGRTYYADSVKGRFTISRDNAKNTVYLQMNSLKPEVTAVYYCNKVRPSKFWDYYYCGQGTQVTVSS
high polyreactivity

Look up polyreactivity (PSR sort gate) of QVQLVESGGGLVQAGGSLRLSCAASGIIFYRNAMGWYRQAPGKERELVAGITSGGSTYYADSVKGRFTISRDNAKNTVYLQMNSLIPEDTAVYYCAAYYRASQRYLQYGYWGQGTQVNVSS and report it.
high polyreactivity

Kindly indicate its recorded polyreactivity (PSR sort gate). Item: QVQLVESGGGLVQAGGSLRLSCAASGSTFFVNAMGWYRQAPGKERELVAAISTSGGRTYYADSVKGRFTISRDNAKNTVYLQMNSLKPEDTAVYYCAAYLRSPKGYYYWGQGTQVTVSS
high polyreactivity
